Biological target: T1, SFVmac PR-RT WT (simian foamy virus from macaque (SFVmac), UniProt P23074 1-751)
T1 sequence: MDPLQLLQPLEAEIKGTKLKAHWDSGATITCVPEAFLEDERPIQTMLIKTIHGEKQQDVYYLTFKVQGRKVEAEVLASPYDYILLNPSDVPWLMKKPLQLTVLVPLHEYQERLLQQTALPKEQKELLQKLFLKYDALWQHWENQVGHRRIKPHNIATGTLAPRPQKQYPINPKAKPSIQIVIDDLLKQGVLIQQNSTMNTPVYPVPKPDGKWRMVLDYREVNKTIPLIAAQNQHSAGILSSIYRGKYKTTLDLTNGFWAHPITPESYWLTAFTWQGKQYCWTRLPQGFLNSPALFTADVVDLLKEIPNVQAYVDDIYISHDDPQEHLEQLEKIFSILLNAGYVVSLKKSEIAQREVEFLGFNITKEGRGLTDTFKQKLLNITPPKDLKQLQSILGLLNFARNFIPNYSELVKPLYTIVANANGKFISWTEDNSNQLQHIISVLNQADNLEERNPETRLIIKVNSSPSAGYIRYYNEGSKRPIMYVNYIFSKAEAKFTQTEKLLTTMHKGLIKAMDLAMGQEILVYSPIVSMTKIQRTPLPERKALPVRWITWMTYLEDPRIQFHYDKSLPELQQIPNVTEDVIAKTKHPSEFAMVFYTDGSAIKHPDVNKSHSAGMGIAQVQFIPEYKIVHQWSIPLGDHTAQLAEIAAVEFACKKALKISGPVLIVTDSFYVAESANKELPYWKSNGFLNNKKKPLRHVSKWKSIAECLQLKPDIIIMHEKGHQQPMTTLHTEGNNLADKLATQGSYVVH
Test: fluorescence anisotropy
PROPERTY_LABEL: pKd
Just the number, please; pKd means minus log10 of the concentration in mol/L.

>  <BINDER>
24/40-mer DNA/RNA P/T (DNA:RNA) DNA: ATCACCAGGAGAGGGGAAAGCGGA RNA: CUAAUUCCGCUUUCCCCUCUCCUGGUGAUCCUUUCCAUCC

>  <PROPERTY_LABEL>
pKd

>  <TEST_RESULT>
7.49

$$$$

Q: Look up pKd: 24/40-mer DNA/DNA P/T (dsDNA) DNA 1: ATCACCAGGAGAGGGGAAAGCGGA DNA 2: CTAATTCCGCTTTCCCCTCTCCTGGTGATCCTTTCCATCC
Result: 7.44
